Cited source for all entries: patent US12472272B2

Tested on: PSMA-expressing LNCAP cancer xenografts
assay.protocol: Biodistribution of ^68Ga-labeled PSMA-targeting tracers
Type: in vivo, mice
condition.context: 1 h post-injection
readout.type: Tissue (% ID/g): Seminal

[[record]]
compound = "O=C([O-])CN1CCN(CC(=O)[O-])CCN(CC(=O)NC[C@H]2CC[C@H](C(=O)N[C@@H](Cc3c4ccccc4cc4ccccc34)C(=O)NCCCC[C@H](NC(=O)N[C@@H](CCC(=O)O)C(=O)O)C(=O)O)CC2)CCN(CC(=O)[O-])CC1.[68Ga+3] [^68Ga-HTK03041]"
readout_type = "Tissue (% ID/g): Seminal"
data_value = 1.03

[[record]]
compound = "O=C([O-])CN1CCN(CC(=O)[O-])CCN(CC(=O)NC[C@H]2CC[C@H](C(=O)N[C@@H](Cc3ccc4cc5ccccc5cc4c3)C(=O)NCCCC[C@H](NC(=O)N[C@@H](CCC(=O)O)C(=O)O)C(=O)O)CC2)CCN(CC(=O)[O-])CC1.[68Ga+3] [^68Ga-HTK03027]"
readout_type = "Tissue (% ID/g): Seminal"
data_value = 10.6


I = O=C([O-])CN1CCN(CC(=O)[O-])CCN(CC(=O)NC[C@H]2CC[C@H](C(=O)N[C@@H](Cc3ccc4ccc5cccc6ccc3c4c56)C(=O)NCCCC[C@H](NC(=O)N[C@@H](CCC(=O)O)C(=O)O)C(=O)O)CC2)CCN(CC(=O)[O-])CC1.[68Ga+3] [^68Ga-HTK03029]
II = CCCCCC[C@H](NC(=O)[C@H]1CC[C@H](CNC(=O)CN2CCN(CC(=O)[O-])CCN(CC(=O)[O-])CCN(CC(=O)[O-])CC2)CC1)C(=O)NCCCC[C@H](NC(=O)N[C@@H](CCC(=O)O)C(=O)O)C(=O)O.[68Ga+3] [^68Ga-HTK03026]
[ask] Lower Tissue (% ID/g): Seminal: I or II ? Your answer should be the label of the entry you select.
[reply] II
